The measurements presented in this section are drawn from patent US20120135995A1.

system: Septoria nodorum; assay: Test C: wheat seedlings sprayed, next day inoculated with Septoria nodorum (wheat glume blotch), visual disease rating; type: in vivo; conditions: Parastagonospora nodorum, 200 ppm test suspension, sprayed day before inoculation
Give pest or weed control at 200 ppm for every item shown.
Expressed in %, but write only the number.

Lookup: Return reported pest or weed control at 200 ppm; argument: COc1cc(OC)cc(-c2c(C)nnc(C)c2-c2c(F)ccc(F)c2F)c1 [Compound 17]
Found: 99

Lookup: Return reported pest or weed control at 200 ppm; argument: COc1cc(OC)cc(-c2cnnc(C)c2-c2c(F)cc(F)cc2F)c1 [Compound 6]
Found: 96

Lookup: Return reported pest or weed control at 200 ppm; argument: COc1cc(OC)cc(-c2c(CC#N)nnc(Cl)c2-c2c(F)cccc2F)c1 [Compound 27]
Found: 100

Lookup: Return reported pest or weed control at 200 ppm; argument: COc1cc(OC)cc(-c2cnnc(Cl)c2-c2c(F)cc(F)cc2F)c1 [Compound 5]
Found: 100

Lookup: Return reported pest or weed control at 200 ppm; argument: COc1cc(OC)cc(-c2cnnc(CCl)c2-c2c(F)cc(F)cc2F)c1 [Compound 7]
Found: 94

Lookup: Return reported pest or weed control at 200 ppm; argument: COc1cc(OC)cc(-c2c(C)nnc(F)c2-c2c(F)cccc2F)c1 [Compound 33]
Found: 99

Lookup: Return reported pest or weed control at 200 ppm; argument: COc1cc(OC)cc(-c2c(C)nnc(Cl)c2-c2c(F)ccc(F)c2F)c1 [Compound 15]
Found: 84

Lookup: Return reported pest or weed control at 200 ppm; argument: COc1cc(OC)cc(-c2c(Cl)nnc(C)c2-c2c(F)cccc2F)c1 [Compound 4]
Found: 0

====

system: Erysiphe graminis; test: Test F: wheat seedlings sprayed, next day inoculated with Erysiphe graminis (wheat powdery mildew), visual disease rating; assay type: in vivo; conditions: Blumeria graminis, 200 ppm test suspension, sprayed day before inoculation
measure: pest or weed control at 200 ppm (%)
Expressed in %, but write only the number.

Lookup: Return reported pest or weed control at 200 ppm; argument: COc1cc(OC)cc(-c2cnnc(C)c2-c2c(F)cc(F)cc2F)c1
Found: 100

Lookup: Return reported pest or weed control at 200 ppm; argument: COc1cc(OC)cc(-c2c(C)nnc(Cl)c2-c2c(F)ccc(F)c2F)c1
Found: 99

Lookup: Return reported pest or weed control at 200 ppm; argument: COc1cc(OC)cc(-c2cnnc(CCl)c2-c2c(F)cc(F)cc2F)c1
Found: 99

Lookup: Return reported pest or weed control at 200 ppm; argument: COc1cc(OC)cc(-c2c(C)nnc(C)c2-c2c(F)ccc(F)c2F)c1
Found: 100

Lookup: Return reported pest or weed control at 200 ppm; argument: COc1cc(OC)cc(-c2cnnc(Cl)c2-c2c(F)cc(F)cc2F)c1
Found: 100

Lookup: Return reported pest or weed control at 200 ppm; argument: COc1cc(OC)cc(-c2c(C)nnc(F)c2-c2c(F)cccc2F)c1
Found: 99

Lookup: Return reported pest or weed control at 200 ppm; argument: COc1cc(OC)cc(-c2c(CC#N)nnc(Cl)c2-c2c(F)cccc2F)c1
Found: 98

Lookup: Return reported pest or weed control at 200 ppm; argument: COc1cc(OC)cc(-c2c(Cl)nnc(C)c2-c2c(F)cccc2F)c1
Found: 95

====

tested on: Septoria tritici; experiment: Test D: wheat seedlings sprayed, next day inoculated with Septoria tritici (wheat leaf blotch), visual disease rating; format: in vivo; conditions: 200 ppm test suspension, sprayed day before inoculation
measure: Test D rating (disease control)

Lookup: Return reported Test D rating (disease control); argument: COc1cc(OC)cc(-c2c(Cl)nnc(C)c2-c2ccc(F)cc2)c1
Found: 45%

Lookup: Return reported Test D rating (disease control); argument: COc1cc(OC)cc(-c2c(C(C)C)nnc(C)c2-c2c(F)cc(F)cc2F)c1
Found: 99%

Lookup: Return reported Test D rating (disease control); argument: COc1cc(OC)c(Cl)c(-c2c(C)nnc(F)c2-c2c(F)cccc2F)c1
Found: 100%

Lookup: Return reported Test D rating (disease control); argument: COc1ccc(-c2c(C)nnc(Cl)c2-c2cc(OC)cc(OC)c2)cc1
Found: 62%

Lookup: Return reported Test D rating (disease control); argument: COc1cc(OC)cc(-c2c(Cl)nnc(C)c2-c2ccc(Cl)cc2)c1
Found: 0%

Lookup: Return reported Test D rating (disease control); argument: COc1ccc(-c2c(C)nnc(C(C)=O)c2-c2cc(OC)cc(OC)c2)cc1
Found: 99%

Lookup: Return reported Test D rating (disease control); argument: COc1cc(OC)c(Cl)c(-c2c(C)nnc(C)c2-c2c(F)cccc2F)c1Cl
Found: 100%

Lookup: Return reported Test D rating (disease control); argument: COc1cc(OC)c(Cl)c(-c2c(C)nnc(Cl)c2-c2c(F)cccc2Cl)c1Cl
Found: 60%

Lookup: Return reported Test D rating (disease control); argument: COc1cc(OC)cc(-c2c(C)nnc(C)c2-c2c(F)cccc2F)c1
Found: 100%
